Data credit: the supplement of paper PMC9732359

test: protein stability index of a GFP-peptide fusion (yeast GPS) (PSI 1-4); higher = more stable; sorted into four equal gates, so the index is relative within each strain
condition-details: doa10∆
readout-type: protein stability index
Please give only the number in your answer, with no unit.

// solved cases for protein stability index follow
>  <chain>
PTTMVTNQKDTNDHVDK [ISW2]

>  <protein stability index>
1.96

$$$$
>  <chain>
EQQWITRAQYLAFAKLV [SRP68]

>  <protein stability index>
1.63

$$$$
>  <chain>
ECFISMQSTSPAVKQWD [SWI1]

>  <protein stability index>
2.34

$$$$
>  <chain>
SNSTPNANQQFLPFNNS [SWI1]

>  <protein stability index>
3.25

$$$$

Record summary for LPILPIQRLRLLREKQR [YOR098C/NUP1] : reported protein stability index = 2.09

// recorded protein stability index for SCTFWSDKESNAYGFIE [YJL039C/NUP192] : 2.9

---

# maps each entry to its protein stability index
test: protein stability index of a GFP-peptide fusion (yeast GPS) (PSI 1-4); higher = more stable; sorted into four equal gates, so the index is relative within each strain
condition-details: san1∆
Give the figure only, with no unit attached.

Worked cases, answers included:
>  <chain>
RLGLIPLQSMDIEQLEY [RPB3]

>  <protein stability index>
2.91

$$$$
>  <chain>
EHKTPELISFKERTKSL [YIL149C/MLP2]

>  <protein stability index>
2.93

$$$$
>  <chain>
FKYRKARLEPGTAIGAI [RPO31]

>  <protein stability index>
2.17

$$$$
>  <chain>
KKAEKAARKAEKAKSAG [RPL24A]

>  <protein stability index>
3.53

$$$$
>  <chain>
ASFNDTFVHVTDLSGKE [RPS14A]

>  <protein stability index>
1.76

$$$$

Now for the sequence whose protein stability index we want.
Recorded protein stability index (sequence VYSVDPLEKITDAYLDQ [PRP8] ): 2.98

---

test: protein stability index of a GFP-peptide fusion (yeast GPS) (PSI 1-4); higher = more stable; sorted into four equal gates, so the index is relative within each strain
condition-details: doa10∆
Rule: fulfilled for protein stability index not less than 3, not fulfilled for anything less.

>  <chain>
QDVDDAHAIDQMTWRQW [POP8]

>  <category>
not fulfilled

$$$$
>  <chain>
GFSTGIGDTIADGPTMR [RPO21]

>  <category>
not fulfilled

$$$$
>  <chain>
SYDKTVKLWEEDPDQEE [YGL100W/SEH1]

>  <category>
fulfilled

$$$$
>  <chain>
KVVNFWLLHNGFSTGIG [RPO21]

>  <category>
fulfilled

$$$$
>  <chain>
LKYLSVEEVIKLVRDSF [PRE7]

>  <category>
not fulfilled

$$$$
>  <chain>
DAIQAGIWNDLGSGSNV [PUP1]

>  <category>
not fulfilled

$$$$

Check if protein stability index >= 3 (inclusive). Item: LKNEGIDLDHKRFLILQ [SMC4]
not fulfilled

---

test: protein stability index of a GFP-peptide fusion (yeast GPS) (PSI 1-4); higher = more stable; sorted into four equal gates, so the index is relative within each strain
condition-details: doa10∆
readout-type: protein stability index

Example results:
>  <chain>
SSVYRLKFAVQVDKVTK [RPL26A]

>  <readout-type>
protein stability index

>  <observed-value>
1.67

$$$$
>  <chain>
NEMLLKRVTKVKRLLFT [MTW1]

>  <readout-type>
protein stability index

>  <observed-value>
1.26

$$$$
>  <chain>
SRKRKPKSASNTSSKRQ [IRR1]

>  <readout-type>
protein stability index

>  <observed-value>
2.86

$$$$
>  <chain>
SGTKSEVLTYVNYLISN [YJL039C/NUP192]

>  <readout-type>
protein stability index

>  <observed-value>
2.52

$$$$
>  <chain>
IAPRPLDLLRPVVRAPT [RPL13A]

>  <readout-type>
protein stability index

>  <observed-value>
2.55

$$$$

Entry KGIDSVVRRRFRGNISQ [RPL32] , protein stability index reported as 2.82

Just so you know, measured protein stability index for RKQRVKKKTKKELELER [SWI1] came out at 2.69

For record DNPDQGISDMCRLFFTE [YCS4] the listed protein stability index is 3.37
